# maps each entry to its pIC50
# TARGET ENTITY: Neprilysin (Oryctolagus cuniculus, UniProt P08049)
# Sequence (P08049 whole entry): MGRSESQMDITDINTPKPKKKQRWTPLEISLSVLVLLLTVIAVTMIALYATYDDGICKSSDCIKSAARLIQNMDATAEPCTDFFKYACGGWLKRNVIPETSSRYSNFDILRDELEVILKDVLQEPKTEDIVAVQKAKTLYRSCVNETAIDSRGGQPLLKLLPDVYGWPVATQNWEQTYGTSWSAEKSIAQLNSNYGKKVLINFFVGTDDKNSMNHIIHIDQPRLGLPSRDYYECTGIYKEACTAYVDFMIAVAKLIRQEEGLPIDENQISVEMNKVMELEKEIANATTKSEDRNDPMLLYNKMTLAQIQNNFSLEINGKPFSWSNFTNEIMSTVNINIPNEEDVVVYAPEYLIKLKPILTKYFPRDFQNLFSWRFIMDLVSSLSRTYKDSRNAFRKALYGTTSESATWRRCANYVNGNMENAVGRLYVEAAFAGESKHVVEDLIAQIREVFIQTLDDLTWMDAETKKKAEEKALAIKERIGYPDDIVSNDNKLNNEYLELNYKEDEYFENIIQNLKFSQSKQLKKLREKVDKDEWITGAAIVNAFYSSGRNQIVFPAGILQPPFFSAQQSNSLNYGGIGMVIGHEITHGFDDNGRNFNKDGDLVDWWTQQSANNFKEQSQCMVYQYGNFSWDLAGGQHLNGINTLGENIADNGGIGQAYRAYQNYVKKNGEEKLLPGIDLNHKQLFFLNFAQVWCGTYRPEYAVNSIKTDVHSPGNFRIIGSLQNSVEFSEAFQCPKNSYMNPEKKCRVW
Units for pIC50: none; it is -log10 of a concentration expressed in mol/L.

COMPOUND: CC(C)CC(S)CC(=O)NC(Cc1ccccc1)C(=O)O (stereo not drawn)
pIC50: 7.43

COMPOUND: CC(C)C[C@H](S)[C@@H](Cc1ccccc1)C(=O)N[C@@H](C)C(=O)O
pIC50: 8.44

COMPOUND: CC(C)CC(S)C(Cc1ccccc1)C(=O)NC(C)C(=O)O (stereo not drawn)
pIC50: 7.85

COMPOUND: CC(C)C[C@@H](S)[C@H](Cc1ccccc1)C(=O)N[C@@H](C)C(=O)O
pIC50: 7.70

COMPOUND: O=C(O)C(Cc1ccc(O)cc1)NC(=O)C(Cc1ccccc1)C(S)CCc1ccccc1 (stereo not drawn)
pIC50: 6.74

[Q] Look up pIC50: CC(C)CC(S)[C@H](Cc1ccccc1)C(=O)N[C@@H](C)C(=O)O (stereo partly drawn)
[A] 7.40

[Q] Another: CC(C)CC(S)C(Cc1ccccc1)C(=O)NC(Cc1ccc(O)cc1)C(=O)O (stereo not drawn)
[A] 7.59

[Q] Another: CC(C)C[C@H](S)[C@H](Cc1ccccc1)C(=O)N[C@@H](C)C(=O)O
[A] 7.46
